Experiment: Inhibition of porcine brain CK1-delta/epsilon using CKS peptide substrate after 30 mins by scintillation and luminescence counting method in presence of [gamma-33P]ATP
Set-up: species or system Sus scrofa

{"columns": ["smi", "readout-relation", "IC50 / nM"],
 "data": [
  ["COc1ccc2c(-c3nc4ccc(N5CCN(C)CC5)nn4c3-c3ccncc3)cccc2c1", ">", 10000],
  ["CN1CCN(c2ccc3nc(-c4ccc(-c5ccccc5)s4)c(-c4ccncc4)n3n2)CC1", ">", 10000],
  ["CN1CCN(c2ccc3nc(-c4cccc(-c5ccsc5)c4)c(-c4ccncc4)n3n2)CC1", "≥", 10000],
  ["c1cc2c(c(-c3nc4cccnn4c3-c3ccncc3)c1)OCO2", "=", 2400],
  ["CN1CCN(c2ccc3nc(-c4cccc5c4OCO5)c(-c4ccccc4)n3n2)CC1", "≥", 10000],
  ["CN1CCN(c2ccc3nc(-c4cccc(-c5ccccc5)c4)c(-c4ccncc4)n3n2)CC1", ">", 10000],
  ["CN1CCN(c2ccc3nc(-c4ccc(C(=O)N5CCOCC5)cc4)c(-c4ccncc4)n3n2)CC1", ">", 10000],
  ["CN1CCN(c2ccc3nc(-c4ccc5c(c4)OCO5)c(-c4ccncc4)n3n2)CC1", "=", 150],
  ["CN1CCN(c2ccc3nc(-c4ccc(-c5ccccc5)cc4)c(-c4ccncc4)n3n2)CC1", ">", 10000],
  ["CN1CCN(c2ccc3nc(-c4cccc5ccccc45)c(-c4ccncc4)n3n2)CC1", "=", 510],
  ["CN1CCN(c2ccc3nc(-c4cccc5c4OCO5)c(-c4cccnc4)n3n2)CC1", ">", 10000],
  ["CCOc1ccc2c(-c3nc4ccc(N5CCN(C)CC5)nn4c3-c3ccncc3)cccc2c1", ">", 10000],
  ["CN1CCN(c2ccc3nc(-c4cccc5c4OCO5)c(-c4ccncc4)n3c2)CC1", ">", 10000],
  ["CN1CCN(c2ccc3nc(-c4ccc5c(c4)OCCO5)c(-c4ccncc4)n3n2)CC1", "≥", 10000],
  ["CN1CCN(c2ccc3nc(-c4cccc5c4OCO5)c(-c4ccncc4)n3n2)CC1", "=", 370],
  ["COc1cccc(-c2nc3ccc(N4CCN(C)CC4)nn3c2-c2ccncc2)c1", "=", 400],
  ["CN1CCN(c2ccc3nc(-c4cccc(-c5cccs5)c4)c(-c4ccncc4)n3n2)CC1", "=", 3100],
  ["CN1CCN(c2ccc3nc(-c4ccc5ncsc5c4)c(-c4ccncc4)n3n2)CC1", "=", 950],
  ["CN1CCN(c2ccc3nc(-c4cccc(C(=O)N5CCOCC5)c4)c(-c4ccncc4)n3n2)CC1", ">", 10000],
  ["CN1CCN(c2ccc3nc(-c4cccc5c4OCCO5)c(-c4ccncc4)n3n2)CC1", "=", 2000]
]}

====

Tested on: Toxoplasma gondii
Experiment: Antiparasitic activity against Toxoplasma gondii RH tachyzoite expressing beta-galactosidase assessed as inhibition of tachyzoite invasion into human foreskin fibroblast host cells after 96 hrs by colorimetric microtitre assay
Format: functional, organism-based
// reported EC50 for each item listed

{"columns": ["compound", "target", "display-unit", "EC50"],
 "data": [
  ["c1cc2c(c(-c3nc4cccnn4c3-c3ccncc3)c1)OCO2", "Toxoplasma gondii", "nM", 1280],
  ["CN1CCN(c2ccc3nc(-c4cccc5c4OCO5)c(-c4ccccc4)n3n2)CC1", "Toxoplasma gondii", "nM", 1900],
  ["CCc1nc(N)nc(N)c1-c1ccc(Cl)cc1", "Toxoplasma gondii", "nM", 340],
  ["CC1CN(c2ccc3nc(-c4cccc5c4OCO5)c(-c4ccncc4)n3n2)CC(C)N1C (centres undefined)", "Toxoplasma gondii", "nM", 630]
]}

====

Experiment: Cytotoxicity against HFF assessed as cell proliferation after 96 hrs by alamar blue reduction assay
Type: cell-based
Conditions: human, HFF cells
Binning rule for recorded CC50 at 96 h: category 1 (below 8 µM), category 2 (8 µM to below 20 µM), category 3 (20 µM or more)

{"columns": ["compound", "qualitative-label"],
 "data": [
  ["CN1CCN(c2ccc3nc(-c4ccc(-c5ccccc5)cc4)c(-c4ccncc4)n3n2)CC1", "category 2"],
  ["CN1CCN(c2ccc3nc(-c4cccc(-c5ccsc5)c4)c(-c4ccncc4)n3n2)CC1", "category 1"],
  ["CN1CCN(c2ccc3nc(-c4cccc5ccccc45)c(-c4ccncc4)n3n2)CC1", "category 3"],
  ["CC1CN(c2ccc3nc(-c4cccc5c4OCO5)c(-c4ccncc4)n3n2)CC(C)N1C (configuration not stated)", "category 3"],
  ["COc1cccc(-c2nc3ccc(N4CCN(C)CC4)nn3c2-c2ccncc2)c1", "category 3"],
  ["CN1CCN(c2ccc3nc(-c4cccc(-c5cccs5)c4)c(-c4ccncc4)n3n2)CC1", "category 1"],
  ["CN1CCN(c2ccc3nc(-c4cccc5c4OCCO5)c(-c4ccncc4)n3n2)CC1", "category 3"],
  ["CN1CCN(c2ccc3nc(-c4cccc5c4OCO5)c(-c4ccccc4)n3n2)CC1", "category 3"],
  ["COc1ccc2c(-c3nc4ccc(N5CCN(C)CC5)nn4c3-c3ccncc3)cccc2c1", "category 3"],
  ["CN1CCN(c2ccc3nc(-c4ccc5c(c4)OCO5)c(-c4ccncc4)n3n2)CC1", "category 2"],
  ["CCc1nc(N)nc(N)c1-c1ccc(Cl)cc1", "category 3"],
  ["CN1CCN(c2ccc3nc(-c4ccc5ncsc5c4)c(-c4ccncc4)n3n2)CC1", "category 2"],
  ["CN1CCN(c2ccc3nc(-c4cccc(C(=O)N5CCOCC5)c4)c(-c4ccncc4)n3n2)CC1", "category 1"],
  ["CN1CCN(c2ccc3nc(-c4ccc(C(=O)N5CCOCC5)cc4)c(-c4ccncc4)n3n2)CC1", "category 2"],
  ["CN1CCN(c2ccc3nc(-c4cccc5c4OCO5)c(-c4ccncc4)n3c2)CC1", "category 3"],
  ["CN1CCN(c2ccc3nc(-c4ccc5c(c4)OCCO5)c(-c4ccncc4)n3n2)CC1", "category 1"],
  ["CN1CCN(c2ccc3nc(-c4cccc(-c5ccccc5)c4)c(-c4ccncc4)n3n2)CC1", "category 2"],
  ["CN1CCN(c2ccc3nc(-c4cccc5c4OCO5)c(-c4ccncc4)n3n2)CC1", "category 3"],
  ["CN1CCN(c2ccc3nc(-c4cccc5c4OCO5)c(-c4cccnc4)n3n2)CC1", "category 3"],
  ["CN1CCN(c2ccc3nc(-c4ccc(-c5ccccc5)s4)c(-c4ccncc4)n3n2)CC1", "category 1"],
  ["CCOc1ccc2c(-c3nc4ccc(N5CCN(C)CC5)nn4c3-c3ccncc3)cccc2c1", "category 1"]
]}

====

Target: Glycogen synthase kinase-3 (Sus scrofa, UniProt B2LUN4+I6LNT8)
Test: Inhibition of porcine brain GSK-3 alpha/beta using GS-1 substrate after 30 mins by scintillation and luminescence counting method in the presence of [gamma-33P]ATP
Form field: IC50 (one value per entry).

{"columns": ["smi", "IC50"],
 "data": [
  ["CN1CCN(c2ccc3nc(-c4cccc5c4OCCO5)c(-c4ccncc4)n3n2)CC1", "> 10 µM"],
  ["CN1CCN(c2ccc3nc(-c4ccc(C(=O)N5CCOCC5)cc4)c(-c4ccncc4)n3n2)CC1", "> 10 µM"],
  ["CN1CCN(c2ccc3nc(-c4cccc5ccccc45)c(-c4ccncc4)n3n2)CC1", "> 10 µM"],
  ["CN1CCN(c2ccc3nc(-c4ccc5c(c4)OCCO5)c(-c4ccncc4)n3n2)CC1", "> 10 µM"],
  ["CN1CCN(c2ccc3nc(-c4cccc(-c5ccsc5)c4)c(-c4ccncc4)n3n2)CC1", "7.6 µM"],
  ["CCOc1ccc2c(-c3nc4ccc(N5CCN(C)CC5)nn4c3-c3ccncc3)cccc2c1", "> 10 µM"],
  ["CN1CCN(c2ccc3nc(-c4ccc5ncsc5c4)c(-c4ccncc4)n3n2)CC1", "> 10 µM"],
  ["CN1CCN(c2ccc3nc(-c4cccc5c4OCO5)c(-c4ccncc4)n3c2)CC1", "> 10 µM"],
  ["CN1CCN(c2ccc3nc(-c4ccc(-c5ccccc5)cc4)c(-c4ccncc4)n3n2)CC1", "> 10 µM"],
  ["CN1CCN(c2ccc3nc(-c4cccc5c4OCO5)c(-c4cccnc4)n3n2)CC1", "> 10 µM"],
  ["CN1CCN(c2ccc3nc(-c4ccc(-c5ccccc5)s4)c(-c4ccncc4)n3n2)CC1", "> 10 µM"],
  ["COc1ccc2c(-c3nc4ccc(N5CCN(C)CC5)nn4c3-c3ccncc3)cccc2c1", "> 10 µM"],
  ["CN1CCN(c2ccc3nc(-c4ccc5c(c4)OCO5)c(-c4ccncc4)n3n2)CC1", "> 10 µM"],
  ["COc1cccc(-c2nc3ccc(N4CCN(C)CC4)nn3c2-c2ccncc2)c1", "8.8 µM"],
  ["CN1CCN(c2ccc3nc(-c4cccc(-c5cccs5)c4)c(-c4ccncc4)n3n2)CC1", "10 µM"]
]}

// provenance: ChEMBL document CHEMBL3734718
